System: SU-DHL-10 cells
ASSAY EXPLANATION: Cell cytotoxicity in SU-DHL-10 cell line (CellTiter-Glo)
Assay type: cell-based
ASSAY CONDITIONS: Homo sapiens, SU-DHL10; CellTiter-Glo, 48 h; read-out: SU-DHL-10 EC50
ASSAY METRIC: EC50 (nM)
Just the number please, in nM, no unit attached.

[[record]]
molecule = "C[C@H]1CN(c2ncc(Cl)c(N3CC(C(=O)NC(C)(C)c4cnc5ccccn45)C3)n2)[C@@H](C)CN1C"
scale_unit = "nM"
recorded_number = 306

[[record]]
molecule = "Cc1cc2c(N3CC(C(=O)NC(C)(C)c4cnc5ccccn45)C3)nc(N3CCCN(C)CC3)nc2s1"
scale_unit = "nM"
recorded_number = 66

[[record]]
molecule = "CN1CCCN(c2ncc(Cl)c(N3CC(C(=O)NC(C)(C)c4cnc5ccccn45)C3)n2)CC1"
scale_unit = "nM"
recorded_number = 203

[[record]]
molecule = "CN(C(=O)C1CN(c2nc(N3CCNC4(CC4)C3)ncc2Cl)C1)C(C)(C)c1cnc2ccccn12"
scale_unit = "nM"
recorded_number = 547

[[record]]
molecule = "C[C@@H]1CN(c2ncc(Cl)c(N3CC(C(=O)NC(C)(C)c4cnc5ccccn45)C3)n2)[C@@H](C)CN1C"
scale_unit = "nM"
recorded_number = 453


Using the record for CCC1CN(c2ncc(Cl)c(N3CC(C(=O)NC(C)(C)c4cnc5ccccn45)C3)n2)CCN1 (stereo not drawn) , state its measured EC50.
218

Quickly give me recorded EC50 for `CC[C@H]1CNCCN1c1ncc(Cl)c(N2CC(C(=O)N(C)C(C)(C)c3cnc4ccccn34)C2)n1`
369

In one line, give reported EC50 of the entry `CC(C)(NC(=O)C1CN(c2nc(N3CC4CCC(C3)N4)ncc2Cl)C1)c1cnc2ccccn12` .
243

State its EC50: `C[C@@H]1CN(c2ncc(Cl)c(N3CC(C(=O)NC(C)(C)c4cnc5ccccn45)C3)n2)CCN1`
367

* * *

System: Plasmodium falciparum 3D7
ASSAY EXPLANATION: SYBR Green assay, Plasmodium falciparum strain 3D7
Format: cell-based
ASSAY CONDITIONS: P. falciparum strain 3D7, 96 h incubation, read-out: Pf EC50 strain 3D7
# EC50 listing for each entry below

[[record]]
molecule = "CC1CN(c2ncc(F)c(N3CC(C(=O)NC(C)(C)c4cnc5ccccn45)C3)n2)C[C@H](C)N1C (stereo partly shown)"
system_tested = "Plasmodium falciparum 3D7"
result = "> 910 nM"

[[record]]
molecule = "C[C@@H]1CN(c2ncc(F)c(N3CC(C)(C(=O)NC(C)(C)c4cnc5ccccn45)C3)n2)CCN1C"
system_tested = "Plasmodium falciparum 3D7"
result = "> 760 nM"

[[record]]
molecule = "C[C@H]1CN(C)CCN1c1ncc(Cl)c(N2CC(C(=O)N(C)Cc3cnc4ccccn34)C2)n1"
system_tested = "Plasmodium falciparum 3D7"
result = "> 1000 nM"


Now for a further molecule.
State its EC50: `COCCN1CCN(c2ncc(Cl)c(N3CC(C(=O)NC(C)(C)c4cnc5ccccn45)C3)n2)CC1`
> 590 nM

* * *

System: SU-DHL-10 cells
ASSAY EXPLANATION: Cell cytotoxicity in SU-DHL-10 cell line (CellTiter-Glo)
Assay type: cell-based
ASSAY CONDITIONS: Homo sapiens, SU-DHL10; CellTiter-Glo, 48 h; read-out: SU-DHL-10 EC50
ASSAY METRIC: EC50 (nM)
Please respond with the number in nM and leave the unit unwritten.

Report EC50, nothing else, for this molecule: C[C@@H]1CN(c2ncc(Cl)c(N3CC(C(=O)NC(C)(C)c4cnc5ccccn45)C3)n2)CCN1C [Example 3]
624

Note down EC50 recorded for CN1CCCN(c2nc3c(c(N4CC(C(=O)NC(C)(C)c5cnc6ccccn56)C4)n2)CCC3)CC1 [Example 114]
65

Give EC50 for the following molecule: C[C@@H]1CNCCN1c1ncc(Cl)c(N2CC(C(=O)NC(C)(C)c3cnc4ccccn34)C2)n1 [Example 141]
378
